Consider the following compounds; for each one, report its composite z-score.
Molecular target: Pro-neuregulin-1, membrane-bound isoform (Homo sapiens) (UniProt Q02297)
Sequence (Q02297 whole entry, looked up, canonical isoform): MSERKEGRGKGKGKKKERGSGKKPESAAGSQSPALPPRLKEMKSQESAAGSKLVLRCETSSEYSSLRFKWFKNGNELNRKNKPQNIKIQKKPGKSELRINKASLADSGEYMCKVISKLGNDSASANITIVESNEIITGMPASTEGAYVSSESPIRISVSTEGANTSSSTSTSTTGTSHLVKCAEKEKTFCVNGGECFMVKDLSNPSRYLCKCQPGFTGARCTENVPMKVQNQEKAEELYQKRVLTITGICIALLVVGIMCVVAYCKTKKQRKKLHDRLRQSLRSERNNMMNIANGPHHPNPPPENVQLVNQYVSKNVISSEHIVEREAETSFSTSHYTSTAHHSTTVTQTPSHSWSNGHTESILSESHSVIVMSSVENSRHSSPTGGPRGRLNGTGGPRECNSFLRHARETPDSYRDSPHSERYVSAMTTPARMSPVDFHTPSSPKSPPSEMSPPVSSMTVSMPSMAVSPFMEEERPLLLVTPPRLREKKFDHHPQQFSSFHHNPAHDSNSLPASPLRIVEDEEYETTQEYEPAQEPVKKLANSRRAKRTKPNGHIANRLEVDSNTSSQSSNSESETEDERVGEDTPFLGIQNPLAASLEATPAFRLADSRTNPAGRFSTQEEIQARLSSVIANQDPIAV
Assay: NRG1 binders on small-molecule microarrays, primary screen, psychiatric disease protein project, biochemical, small-molecule microarray, fluorescence 635/667 (AID 1075);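 further: score combines 667 nm spot fluorescence with signal to noise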
Details: NRG1 binding, 635 nm fluorescence, higher = more signal
Number, no unit, nothing else.

Looking for the measured composite z-score of O=C1O[C@H](c2ccccc2)[C@H](c2ccccc2)N2[C@H]1[C@@H](C(=O)NC[C@H](O)c1ccccc1)[C@]1(C(=O)Nc3ccc(C#CCCO)cc31)[C@H]2c1ccc(OCCO)cc1 , can you help?
1.23

# lookup: composite z-score of O=C1C=C(c2ccccc2)C(=O)c2ccc([C@H]3Oc4ccccc4S(=O)(=O)N4CCC[C@@H]34)cc21
-0.775

I'd like to know its composite z-score. The compound in question is CCOC(=O)C1=CC[C@@H](c2cccc(Cl)c2)N(S(=O)(=O)c2ccc(C)cc2)C1
1.31

Look up composite z-score: COc1ccc([Si](C)(C)[C@H]2[C@H](CCO)O[C@@]3(C(=O)N(Cc4cccc(N5C(=O)COc6ccccc65)c4)c4ccccc43)[C@@H]2C)cc1
0.727

# query: composite z-score of entry CCCCN1CC=CC23O[C@@H]4/C=C\CCC(C)OC(=O)C4[C@H]2C(=O)N(C(CO)C(C)C)[C@@H]3C1=O (some centres not stated)
0.362

Need composite z-score, item CCCCCCc1nc(C2CC2)cc2c1[Si](C(C)C)(C(C)C)OC2
-0.526

Please give the measured composite z-score for this compound: C=CCC(OC(C)=O)[C@@H]1[C@@H](N(Cc2cccc3ccccc23)C(=O)Cc2ccc(OC)cc2)c2cc(OCCCO)ccc2N1C(=O)c1ccc2ccccc2n1 (some centres not stated)
0.836

###

Molecular target: Homeobox protein Hox-A13 (Mus musculus) (UniProt Q62424)
Sequence (Q62424 whole entry, looked up): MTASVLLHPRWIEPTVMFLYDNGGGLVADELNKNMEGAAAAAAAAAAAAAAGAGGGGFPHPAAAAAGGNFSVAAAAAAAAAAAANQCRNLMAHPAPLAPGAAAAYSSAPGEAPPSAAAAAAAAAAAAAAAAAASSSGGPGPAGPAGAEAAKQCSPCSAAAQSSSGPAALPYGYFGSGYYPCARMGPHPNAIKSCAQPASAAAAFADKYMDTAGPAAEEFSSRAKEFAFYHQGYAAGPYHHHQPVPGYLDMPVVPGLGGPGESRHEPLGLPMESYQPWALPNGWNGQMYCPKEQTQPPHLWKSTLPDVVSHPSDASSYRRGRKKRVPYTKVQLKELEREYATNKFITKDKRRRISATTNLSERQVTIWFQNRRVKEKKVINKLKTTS
Assay: inhibitors of HoxA13-DNA binding, primary screen, biochemical, fluorescence polarization, labeled oligonucleotide (AID 1185)
Conditions: 15 min, higher = more signal, called active from +8 up or from −8 down
Assignment: determine reported z-score for the given compounds.
I'd appreciate a reply containing only the number, no unit.

Given the compound COC(=O)C(CC#Cc1ccc2c(c1)[C@]1(C(=O)N2)[C@H](C(=O)N2CCN(c3ncccn3)CC2)[C@H]2C(=O)O[C@H](c3ccccc3)[C@H](c3ccccc3)N2[C@@H]1c1ccc(OCCO)cc1)C(=O)OC , what is its reported z-score?
1.63

Given the entry CN(C)C(=O)C1N=C(c2ccc(OCCCO)cc2)N(c2ccccc2)O1 (configuration not stated) , report its measured z-score.
-1.46

Return reported z-score; argument: CN1C(=O)C2C=CC(C(O)COCc3ccccc3)N(N(c3ccccc3)c3ccccc3)C2C1=O (configuration not stated)
-0.885

Query: z-score; subject: O=C(NCC(F)(F)F)[C@@H]1c2ccccc2C(=O)N(Cc2ccccc2C(F)(F)F)[C@H]1c1ccc(CO)cc1
-2.95

// returns reported z-score for input COCCCNC(=O)[C@@]1(Cc2ccccc2N=[N+]=[N-])COC(c2ccc(OCCCO)cc2)=N1
-5.18

# query: z-score of entry CC(=O)NCCCC[C@@H]1NC(=O)[C@@H]2C[C@H](C(=O)NCCCC[N+](C)(C)C)[C@H](c3ccc(O)cc3)N2C1=O
0.749

Which z-score is reported for this compound? COCCOC(=O)N1C(=O)[C@@]2(c3cc(C#CCCO)ccc31)[C@H](c1ccccc1OCCO)N1[C@H](c3ccccc3)[C@H](c3ccccc3)OC(=O)[C@H]1[C@@H]2C(=O)Nc1nc2ccccc2s1
1.85
